I'd appreciate it if you could supply MIC values for the items below.
System: Syncephalastrum racemosum
Test: Antifungal activity against Syncephalastrum racemosum assessed as fungal growth inhibition measured for 24 to 24 hrs by agar well diffusion assay
Format: functional, organism-based
Settings: time 24-24 hrs
One number for each entry, in µg/mL.

compound: C[C@@H]1[C@H](O)[C@@H](C)/C=C/C=C/C=C/C=C/C=C/C=C/C=C/[C@H](O[C@@H]2O[C@H](C)[C@@H](O)[C@H](N)[C@@H]2O)C[C@@H]2O[C@](O)(C[C@@H](O)C[C@@H](O)[C@H](O)CC[C@@H](O)C[C@@H](O)CC(=O)O[C@H]1C)C[C@H](O)[C@H]2C(=O)O [AMPHOTERICIN B]
assayed-system: Syncephalastrum racemosum
result-units: µg/mL
MIC: 1.95
--
compound: CCOC(=O)N1C/C(=C\c2ccc(OC)cc2)C(=O)[C@@]2(C1)[C@H](c1ccc(OC)cc1)[C@H]1CCCN1[C@]21C(=O)Nc2ccccc21
assayed-system: Syncephalastrum racemosum
result-units: µg/mL
MIC: 0.98
--
compound: CCOC(=O)N1C/C(=C\c2ccc(F)c(F)c2)C(=O)[C@@]2(C1)[C@H](c1ccc(F)c(F)c1)[C@H]1CCCN1[C@]21C(=O)Nc2ccccc21
assayed-system: Syncephalastrum racemosum
result-units: µg/mL
MIC: 1.95
--
compound: CCOC(=O)N1C/C(=C\c2ccc([N+](=O)[O-])cc2)C(=O)[C@@]2(C1)[C@H](c1ccc([N+](=O)[O-])cc1)[C@H]1CCCN1[C@]21C(=O)Nc2ccccc21
assayed-system: Syncephalastrum racemosum
result-units: µg/mL
MIC: 0.49

For record `CCOC(=O)N1C/C(=C\c2ccc(Cl)cc2)C(=O)[C@@]2(C1)[C@H](c1ccc(Cl)cc1)CN(C)[C@]21C(=O)Nc2ccccc21` the listed MIC is 1.95

###

I'd appreciate it if you could supply MIC values for the items below.
Tested on: Syncephalastrum racemosum
Experiment: Antifungal activity against Syncephalastrum racemosum SZMC 2011 assessed as fungal growth inhibition measured after 24 hrs by microtitre plate reader assay
Assay type: functional
One number for each entry, in µg/mL.

Batch: MIC for all items listed.
1. CC(C)c1c(C(=O)Nc2ccccc2)c(-c2ccccc2)c(-c2ccc(F)cc2)n1CC[C@@H](O)C[C@@H](O)CC(=O)O
2. CCC(C)(C)C(=O)O[C@H]1C[C@@H](C)C=C2C=C[C@H](C)[C@H](CC[C@@H]3C[C@@H](O)CC(=O)O3)[C@H]21
3. CC[C@H](C)C(=O)O[C@H]1C[C@@H](C)C=C2C=C[C@H](C)[C@H](CC[C@@H]3C[C@@H](O)CC(=O)O3)[C@H]21

Result:
1. 32
2. 8
3. 16

MIC recorded for this compound, `CC(C)c1nc(N(C)S(C)(=O)=O)nc(-c2ccc(F)cc2)c1/C=C/[C@@H](O)C[C@@H](O)CC(=O)O` , is 32
